target: Interleukin-5 (Mus musculus) (UniProt P04401); assay: Inhibition of IL5-mediated proliferation of mouse Y16 cells at 50 uM by WST1 assay; assay type: cell-based
Sequence (P04401 whole entry): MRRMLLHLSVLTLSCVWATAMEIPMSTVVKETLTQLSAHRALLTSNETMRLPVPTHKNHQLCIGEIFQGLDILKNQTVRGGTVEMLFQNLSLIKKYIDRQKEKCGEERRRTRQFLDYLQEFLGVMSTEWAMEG
Class assignment keyed on inhibition, ranges lowest = under 8%, middle = from 8% up to 20%, highest = 20% and over

{"columns": ["smiles-repr", "group"],
 "data": [
  ["COc1ccc(-c2coc3cccc(OCC4CCCCC4)c3c2=O)cc1OC", "highest"],
  ["COCOc1ccc(-c2coc3cccc(OCC4CCCCC4)c3c2=O)cc1", "middle"],
  ["COc1ccc(-c2coc3cccc(OCC4CCCCC4)c3c2=O)cc1", "middle"],
  ["COc1cc(-c2coc3cccc(OCC4CCCCC4)c3c2=O)cc(OC)c1OC", "highest"],
  ["O=C1/C(=C/c2ccc([N+](=O)[O-])cc2)Oc2cccc(OCC3CCCCC3)c21", "lowest"],
  ["O=C1/C(=C/c2ccccc2)Oc2cccc(OCC3CCCCC3)c21", "lowest"],
  ["COc1cc(-c2coc3cccc(OCC4CCCCC4)c3c2=O)ccc1OCc1ccccc1", "highest"],
  ["COc1cc(-c2coc3cccc(OCC4CCCCC4)c3c2=O)ccc1O", "middle"],
  ["CCc1ccc(-c2coc3cccc(OCC4CCCCC4)c3c2=O)cc1", "middle"],
  ["O=c1c(-c2ccc(O)cc2)coc2cccc(OCC3CCCCC3)c12", "highest"],
  ["COC(=O)c1ccc(/C=C2\\Oc3cccc(OCC4CCCCC4)c3C2=O)cc1", "lowest"],
  ["COc1ccc(-c2coc3cccc(OCC4CCCCC4)c3c2=O)c(OC)c1", "middle"],
  ["CCc1ccc(/C=C2\\Oc3cccc(OCC4CCCCC4)c3C2=O)cc1", "lowest"],
  ["O=c1c(-c2ccc(O[C@@H]3O[C@H](CO)[C@@H](O)[C@H](O)[C@H]3O)cc2)coc2cc(O)cc(O)c12", "highest"],
  ["O=C1/C(=C/c2ccc(Cl)cc2)Oc2cccc(OCC3CCCCC3)c21", "middle"]
]}
